Could you please report measured self-cleavage for the items listed next?
B1: HDV Ribozyme (parent)
chain: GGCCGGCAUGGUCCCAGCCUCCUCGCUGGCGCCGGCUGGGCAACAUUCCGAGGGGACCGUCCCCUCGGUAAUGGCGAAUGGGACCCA

Variants of: B1
Test: self-cleavage, relative activity (ratio to wild type); higher = more cleavage; co-transcriptional
Keep the answer to the number alone.

Request: Item under review: GGCCGGCAUGGUCCCACCCUCCUCGCUGGCGCCGGCUGGGCAAAAUUCCGAGGGGACCGUCCCCUCGGUAAUGGCGAAUGGGACCCA [G17C C44A] . Reported self-cleavage?
Result: 0

Request: Item under review: GGCCGGCAUGGUCCCAGCCUCCUCGCUGGCGCCGGCUGGGCAACAUCCCGAGGGGACCGUCCCCUCGGUAAUGGCGAAUGGGACCCC [U47C A87C] . Reported self-cleavage?
Result: 0.95

Request: Item under review: GGCCGGCAUGGUCCCACCCUCCUCGCUGGCGCCGGCUGGGCAACAUUCCGAGGGGACCGUCCCCUCGGUAAUGGCGAACGGGACCCA [G17C U79C] . Reported self-cleavage?
Result: 0.427

Request: Item under review: GGCCGGCAUGGUCCCAGCCUCCUCGCUGGCGCCGGUUGGGCAACAUGCCGAGGGGACCGUCCCCUCGGUAAUGGCGAAUGGGACCCA [C36U U47G] . Reported self-cleavage?
Result: 0.665
